# measurement.notes: qHTS for Inhibitors of the Functional Ribonucleoprotein Complex (vRNP) of Lymphocytic Choriomeningitis Arenaviruses (LCMV): Viability assay - Alamar blue signal for LCMV Confirmatory Screen
# experimental.conditions: LCMV vRNP confirmatory screen cells; series mostly up to 53.9 µM
Results filed as inconclusive are left out. The source made the active and inactive calls. Calls come from the whole dose curve.
reported.metric: Potency

Some entries whose results are on file:
molecule=O=C(Nc1ccc(Cl)c(Cl)c1)C1CC1 experimental_value=inactive
molecule=CC[C@@]1([C@@H]2O[C@@H]([C@H]3O[C@@](O)(CO)[C@H](C)C[C@H]3C)C[C@H]2C)CC[C@H]([C@]2(C)CC[C@]3(C[C@H](O)[C@@H](C)[C@@H]([C@@H](C)[C@@H](OC)[C@H](C)C(=O)O)O3)O2)O1 experimental_value="5.95 µM (active)"
molecule=Fc1ccc(CNc2ncnc3ccc(F)cc23)cc1 experimental_value=inactive
molecule=FC(F)(F)c1ccc(C=Cc2nc(COc3ccc(CCCCn4ccnn4)cc3)co2)cc1 experimental_value=inactive
molecule=CCc1cncnc1N1CCN(Cc2nc3ccc(C(F)(F)F)cc3[nH]2)CC1 experimental_value="35.2 µM (active)"

Kindly review the next molecule as well.
Problem: // Input: COc1cc2c(cc1OC)CC(=O)N(CCCN(C)C[C@H]1Cc3cc(OC)c(OC)cc31)CC2 . Output its Potency only.
Solution: inactive

====

# measurement.notes: qHTS for Inhibitors of the Functional Ribonucleoprotein Complex (vRNP) of Lymphocytic Choriomeningitis Arenaviruses (LCMV): Viability assay - Alamar blue signal for LCMV Confirmatory Screen
# experimental.conditions: LCMV vRNP confirmatory screen cells; series mostly up to 53.9 µM
Inconclusive results are not listed. The source made the active and inactive calls. Calls come from the whole dose curve.
reported.metric: Potency

compound=N#CC(=C(\N)Sc1ccccc1N)/C(C#N)=C(/N)Sc1ccccc1N experimental_value=inactive
compound=CO/C=C(/C(=O)OC)c1ccccc1Oc1cc(Oc2ccccc2C#N)ncn1 experimental_value="49.8 µM (active)"
compound=O=C(Nc1ccc([N+](=O)[O-])cc1Cl)c1cc(Cl)ccc1O experimental_value="3.43 µM (active)"
compound=CNCCCC1c2ccccc2C=Cc2ccccc21 experimental_value="27.3 µM (active)"
compound="O=C(CCCN1CCN(c2ccc(F)cc2)CC1)NC1c2ccccc2CSc2ccccc21 (stereo not drawn)" experimental_value=inactive

Problem: Consider the compound CCn1c(-c2nonc2N)nc2cnc(Oc3cccc(NC(=O)c4ccc(OCCN5CCOCC5)cc4)c3)cc21 . State its measured Potency.
Solution: 24.3 µM (active)

Problem: Please give measured Potency of the following entry: O=C(Nc1ccccc1)Nc1ccc(-c2ccc(C(=O)[C@H]3CCC[C@H]3C(=O)O)cc2)cc1
Solution: inactive

Problem: Name the recorded Potency of the compound listed here: Cc1ccccc1-n1c(Cn2nc(-c3cccc(O)c3)c3c(N)ncnc32)nc2cccc(C)c2c1=O
Solution: inactive

Problem: Annotate the compound CCCCCN=C(N)N/N=C/c1c[nH]c2ccc(OC)cc12 with its measured Potency.
Solution: 9.68 µM (active)

Problem: Report Potency, nothing else, for this compound: O=c1ccc2ccc(O)c(O)c2o1
Solution: inactive

Problem: Provide only the value of recorded Potency for CCN(CC)C(=O)N[C@@H]1C=C2c3cccc4[nH]cc(c34)C[C@@H]2N(C)C1
Solution: inactive

Problem: Note down Potency recorded for CN(C)c1ccc(O)c2c1C[C@H]1C[C@H]3[C@H](N(C)C)C(=O)C(C(N)=O)=C(O)[C@@]3(O)C(=O)C1=C2O
Solution: inactive

Problem: Hello, please tell me recorded Potency for this one: COc1ccc(Cc2nccc3cc(OC)c(OC)cc23)cc1OC
Solution: inactive

Problem: Look up and report measured Potency for this entry: CC(=O)[C@H]1CC[C@H]2[C@@H]3CCC4=CC(=O)CC[C@]4(C)[C@H]3CC[C@]12C
Solution: inactive

Problem: Determine from records and report Potency for CN1C(C(=O)Nc2ccccn2)=C(O)c2ccccc2S1(=O)=O
Solution: inactive

Problem: Tell me Potency reported for CCCCCC[C@H]1C(=O)O[C@H](C)[C@H](NC(=O)c2cccc(NC=O)c2O)C(=O)O[C@@H](C)[C@@H]1OC(=O)CC(C)C
Solution: inactive

Problem: Specify reported Potency for the compound shown: Cc1cnc(NC(=O)C2=C(O)c3ccccc3S(=O)(=O)N2C)s1
Solution: inactive

Problem: Given the compound COC(=O)c1nc(Cl)c(Cl)nc1N , write its reported Potency.
Solution: 6.11 µM (active)

Problem: Return Potency (reported value) for this compound: CC(O)(P(=O)(O)O)P(=O)(O)O
Solution: inactive

Problem: Identify measured Potency associated with Cc1ccc2c(c1)C1CN(C)CCC1N2 (stereo not drawn)
Solution: inactive

====

# measurement.notes: qHTS for Inhibitors of the Functional Ribonucleoprotein Complex (vRNP) of Lymphocytic Choriomeningitis Arenaviruses (LCMV): Viability assay - Alamar blue signal for LCMV Confirmatory Screen
# experimental.conditions: LCMV vRNP confirmatory screen cells; series mostly up to 53.9 µM
Records with an inconclusive call do not appear. The source made the active and inactive calls. Calls follow the shape of the full dose curve.
reported.metric: outcome

molecule=CCC[C@H](N[C@@H](C)C(=O)N1[C@@H]2CCCC[C@H]2C[C@H]1C(=O)O)C(=O)OCC experimental_value=inactive
molecule=O=C1Cc2cc(CCN3CCN(c4nsc5ccccc45)CC3)c(Cl)cc2N1 experimental_value=inactive
molecule="Cc1ncc([N+](=O)[O-])n1CC(C)O (stereo not drawn)" experimental_value=inactive

====

# measurement.notes: qHTS for Inhibitors of the Functional Ribonucleoprotein Complex (vRNP) of Lymphocytic Choriomeningitis Arenaviruses (LCMV): Viability assay - Alamar blue signal for LCMV Confirmatory Screen
# experimental.conditions: LCMV vRNP confirmatory screen cells; series mostly up to 53.9 µM
Results filed as inconclusive are left out. Active and inactive are the calls of the source. Calls follow the shape of the full dose curve.
Respond with a class label; see active, inactive

Problem: Recorded call for Cc1cc2c(C(C)C)c(O)c(O)c(C=O)c2c(O)c1-c1c(C)cc2c(C(C)C)c(O)c(O)c(C=O)c2c1O ?
Solution: active

Problem: Recorded test call requested for C=C1CC[C@@H]2[C@](C)(CO)[C@H](O)CC[C@@]2(C)[C@@H]1/C=C/C1=CCOC1=O
Solution: inactive

Problem: Hi, do you know how CC12C(=O)OC(=O)C1(C)C1CCC2O1 (stereo not drawn) came out in this test?
Solution: active
